Each record here notes measured EC50.
- Assay comment: Neuroprotective activity against rat cortical cells assessed as glutamate-induced neurotoxicity by MTT assay
- Type: functional, cell-based
Counter-ions that a name gives are not always drawn.

Compound: CC1=C2[C@@H](O)C(=O)O[C@@H](c3ccoc3)[C@]2(C)CC[C@@H]1O [DICTAMDIOL A]
EC50, nM: 68
//
Compound: C[C@H]1C2=C(O)C(=O)O[C@@H](c3ccoc3)[C@]2(C)CC[C@@H]1O[C@@H]1O[C@H](CO)[C@@H](O)[C@H](O)[C@H]1O [DICTAMNUSINE]
EC50, nM: 42
//
Compound: CC1=CCC[C@@]2(C)[C@H](c3ccoc3)OC(=O)[C@H]3O[C@]132 [CALODENDROLIDE]
EC50, nM: 19
//
Compound: CC1=C2C(=O)O[C@@H](c3ccoc3)[C@]2(C)CC[C@H]1O[C@@H]1O[C@H](CO)[C@@H](O)[C@H](O)[C@H]1O
EC50, nM: 705
//
Compound: CC1(C)O[C@H]2CC(=O)OC[C@]23[C@H]2CC[C@@]4(C)[C@H](c5ccoc5)OC(=O)[C@H]5O[C@]54[C@]2(C)C(=O)C[C@@H]13 [LIMONIN]
EC50, nM: 18
//
Compound: C[C@]12N[C@H](Cc3ccccc31)c1ccccc12 [DIZOCILPINE MALEATE]
EC50, nM: 480
//
Compound: CC1=C2C(=O)O[C@@H](c3ccoc3)[C@]2(C)CCC1 [FRAXINELLONE]
EC50, nM: 22
//
Compound: CC1=C2C(=O)O[C@@H](c3ccoc3)[C@]2(C)CC[C@@H]1O
EC50, nM: 98
//
Compound: CC1(C)OC(=O)C=C[C@]2(C)[C@H]3CC[C@@]4(C)[C@H](c5ccoc5)OC(=O)[C@H]5O[C@]54[C@]3(C)C(=O)C[C@@H]12 [OBACUNONE]
EC50, nM: 39
//
Compound: CC1(C)O[C@H]2CC(=O)OC[C@]23[C@H]2CC[C@@]4(C)[C@H](c5ccoc5)OC(=O)[C@H]5O[C@]54[C@]2(C)[C@@H](O)C(=O)[C@@H]13 [RUTAEVIN]
EC50, nM: 3060
